quantity.kind: melting point

molecule: CC(C)c1cc(-c2cc3n(C)c(=O)c4ccccc4n3n2)ccn1.Cl
experimental.value: > 250 °C
//
molecule: Cn1c(=O)c2cc(F)c(N3CCCC3CO)cc2n2nc(-c3ccnc(C(F)(F)F)c3)cc12 (stereo not shown)
experimental.value: > 250 °C
//
molecule: Cn1c(=O)c2ccccc2n2nc(-c3ccnc(OCC(F)(F)C(F)(F)F)c3)cc12
experimental.value: 150 to 155 °C
//
molecule: CN1CCN(c2ccc3c(=O)n(C)c4cc(-c5ccnc(C(F)(F)F)c5)nn4c3c2)CC1.Cl
experimental.value: > 250 °C

====

Where a name gives a salt, the structure may show the parent alone.
quantity.kind: melting point

compound: Cn1c(=O)c2cc(C(F)(F)F)ccc2n2nc(-c3ccnc(C(F)(F)F)c3)cc12
experimental.value: 205 to 210 °C
--
compound: COCCOc1cc(-c2cc3n(C)c(=O)c4ccccc4n3n2)ccn1
experimental.value: 169 to 173 °C
--
compound: Cn1c(=O)c2ccccc2n2nc(-c3ccncc3F)cc12
experimental.value: 244 to 247 °C
--
compound: Cc1cc(-c2cc3n(C)c(=O)c4ccccc4n3n2)cc(C2CC2)n1 (as salt: HCl)
experimental.value: > 250 °C
--
compound: Cn1c(=O)c2ccc(C(=O)N3CC(O)C3)cc2n2nc(-c3ccnc(C(F)(F)F)c3)cc12
experimental.value: > 250 °C
--
compound: CC1CN(c2ccc3c(=O)n(C)c4cc(-c5ccnc(C(F)(F)F)c5)nn4c3c2)CC(C)O1 (stereo not shown)
experimental.value: > 250 °C
--
compound: Cn1c(=O)c2cc(N3CCOCC3)ccc2n2nc(-c3ccnc(C(F)(F)F)c3)cc12
experimental.value: 149 to 163 °C
--
compound: Cn1c(=O)c2ccc(N3CCCC3)cc2n2nc(-c3ccnc(C(F)(F)F)c3)cc12
experimental.value: > 250 °C
--
compound: Cn1c(=O)c2ccc(N3CCCC(O)C3)cc2n2nc(-c3ccnc(C(F)(F)F)c3)cc12 (stereo not shown)
experimental.value: > 250 °C
--
compound: Cn1c(=O)c2ccc(N3CCC(O)C3)cc2n2nc(-c3ccnc(C(F)(F)F)c3)cc12 (stereo not shown)
experimental.value: > 250 °C
--
compound: Cn1c(=O)c2ccc(C(=O)N3CCCC3)cc2n2nc(-c3ccnc(C(F)(F)F)c3)cc12
experimental.value: > 250 °C
--
compound: Cl.Cn1c(=O)c2ccccc2n2nc(-c3ccnc(C4CC4)c3)cc12
experimental.value: 248 to 251 °C
--
compound: Cl.Cn1c(=O)c2ccccc2n2nc(-c3ccnc(C4CCCCC4)c3)cc12
experimental.value: > 250 °C
--
compound: CCOc1cc(-c2cc3n(C)c(=O)c4ccccc4n3n2)ccn1
experimental.value: 180 to 182 °C
--
compound: Cn1c(=O)c2ccccc2n2nc(-c3ccnc(C(F)(F)F)c3)cc12
experimental.value: 232 to 244 °C
--
compound: Cn1c(=O)c2ccc(N3CC(CO)C3)cc2n2nc(-c3ccnc(C(F)(F)F)c3)cc12
experimental.value: > 250 °C
--
compound: Cn1c(=O)c2cc(OC(F)(F)F)ccc2n2nc(-c3ccnc(C(F)(F)F)c3)cc12
experimental.value: 240 to 245 °C
--
compound: [2H]C([2H])([2H])n1c(=O)c2ccccc2n2nc(-c3ccnc(C(F)(F)F)c3)cc12
experimental.value: 232 to 237 °C
--
compound: Cl.Cn1c(=O)c2ccccc2n2nc(-c3ccnc(C4CCC4)c3)cc12
experimental.value: 236 to 244 °C
--
compound: Cn1c(=O)c2ccccc2n2nc(-c3ccncc3)cc12 (as salt: HCl)
experimental.value: > 250 °C
--
compound: COc1cc2c(=O)n(C)c3cc(-c4ccnc(C(F)(F)F)c4)nn3c2cc1OC
experimental.value: > 250 °C
--
compound: CN(C)c1cc2c(cc1F)c(=O)n(C)c1cc(-c3ccnc(C(F)(F)F)c3)nn21
experimental.value: > 250 °C
--
compound: Cn1c(=O)c2cc(O)ccc2n2nc(-c3ccnc(C(F)(F)F)c3)cc12
experimental.value: > 250 °C
--
compound: O=c1c2ccccc2n2nc(-c3ccnc(C(F)(F)F)c3)cc2n1CC(F)F
experimental.value: 223 to 230 °C
--
compound: COCCOc1ccc2c(c1)c(=O)n(C)c1cc(-c3ccnc(C(F)(F)F)c3)nn21
experimental.value: 182 to 189 °C
--
compound: Cn1c(=O)c2ccc(NCC(C)(C)O)cc2n2nc(-c3ccnc(C(F)(F)F)c3)cc12
experimental.value: > 250 °C
--
compound: COc1cc2c(=O)n(C)c3cc(-c4ccnc(C(F)(F)F)c4)nn3c2cc1N1CCC(O)CC1
experimental.value: > 250 °C
--
compound: Cl.Cn1c(=O)c2cc(OCCN3CCOCC3)ccc2n2nc(-c3ccnc(C(F)(F)F)c3)cc12
experimental.value: > 250 °C
--
compound: CCNc1ccc2c(c1)c(=O)n(C)c1cc(-c3ccnc(C(F)(F)F)c3)nn21
experimental.value: 239 to 242 °C
--
compound: COc1ccc2c(=O)n(C)c3cc(-c4ccnc(C(F)(F)F)c4)nn3c2c1
experimental.value: > 250 °C
--
compound: Cn1c(=O)c2ccc(C#N)cc2n2nc(-c3ccnc(C(F)(F)F)c3)cc12
experimental.value: > 250 °C
--
compound: [2H]C([2H])([2H])n1c(=O)c2ccccc2n2nc(-c3ccnc(C(C)(F)F)c3)cc12
experimental.value: 198 to 205 °C
--
compound: Cn1c(=O)c2cc(F)c(OC3COC3)cc2n2nc(-c3ccnc(C(F)(F)F)c3)cc12
experimental.value: > 250 °C
--
compound: Cn1c(=O)c2cc(F)c(N3CCC34CCC(CO)CC4)cc2n2nc(-c3ccnc(C(F)(F)F)c3)cc12 (stereo not shown)
experimental.value: > 250 °C

====

Target: human mGluR2 (hmGluR2) (Homo sapiens, UniProt Q14416)
Construct: expressed in transfected cells; host or cells: HEK-293 cells, transient co-transfection by electroporation
Sequence (Q14416 19-872): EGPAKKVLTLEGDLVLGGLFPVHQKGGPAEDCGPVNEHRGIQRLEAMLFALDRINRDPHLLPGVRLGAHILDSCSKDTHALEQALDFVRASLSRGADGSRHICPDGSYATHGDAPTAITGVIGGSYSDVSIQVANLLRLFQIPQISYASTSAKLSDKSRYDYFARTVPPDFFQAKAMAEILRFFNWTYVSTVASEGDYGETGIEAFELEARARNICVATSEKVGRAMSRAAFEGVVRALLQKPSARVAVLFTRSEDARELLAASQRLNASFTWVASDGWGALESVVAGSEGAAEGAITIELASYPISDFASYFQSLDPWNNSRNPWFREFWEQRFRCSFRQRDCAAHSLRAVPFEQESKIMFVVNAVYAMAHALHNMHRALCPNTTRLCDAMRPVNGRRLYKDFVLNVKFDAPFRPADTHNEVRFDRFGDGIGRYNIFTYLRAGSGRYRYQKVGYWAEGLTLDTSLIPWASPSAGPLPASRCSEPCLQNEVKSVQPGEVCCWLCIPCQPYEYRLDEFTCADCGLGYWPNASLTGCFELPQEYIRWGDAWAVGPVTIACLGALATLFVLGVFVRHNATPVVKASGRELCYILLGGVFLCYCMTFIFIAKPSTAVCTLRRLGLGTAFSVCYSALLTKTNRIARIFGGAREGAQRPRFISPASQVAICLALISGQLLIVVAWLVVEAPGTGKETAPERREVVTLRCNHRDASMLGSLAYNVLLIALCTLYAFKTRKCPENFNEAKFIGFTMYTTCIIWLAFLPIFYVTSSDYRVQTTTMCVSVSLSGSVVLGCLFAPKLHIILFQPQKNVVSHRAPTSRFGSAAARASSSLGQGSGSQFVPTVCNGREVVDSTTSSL
Assay: Ca++ functional assay, human mGluR2 transiently over-expressed in HEK-293 cells (agonist and negative allosteric modulator modes)
Assay type: cell-based
Details: glutamate at EC80, intracellular calcium (Fluo4AM), read-out: hmGluR2 negative allosteric modulator activity IC50
Here, each record is paired with measured IC50 data.

molecule: Cn1c(=O)c2cc(F)c(N3CC(O)C3)cc2n2nc(-c3ccnc(C(F)(F)F)c3)cc12
IC50: < 1000 nM
//
molecule: CCOc1cc(-c2cc3n(C)c(=O)c4ccccc4n3n2)ccn1
IC50: < 1000 nM
//
molecule: CCOc1ccc2c(c1)c(=O)n(C)c1cc(-c3ccnc(C(F)(F)F)c3)nn21
IC50: < 1000 nM
//
molecule: COc1ccc2c(c1)c(=O)n(C)c1cc(-c3ccnc(Cl)c3)nn21
IC50: < 1000 nM
//
molecule: CN(C)c1ccc2c(c1)c(=O)n(C)c1cc(-c3ccnc(C(F)(F)F)c3)nn21
IC50: < 1000 nM
//
molecule: Cn1c(=O)c2ccc(N3CC(O)C3)cc2n2nc(-c3ccnc(C(F)(F)F)c3)cc12
IC50: < 1000 nM
//
molecule: CCc1cc(-c2cc3n(C)c(=O)c4ccccc4n3n2)ccn1.Cl
IC50: < 1000 nM
//
molecule: CCN(CC)C(=O)c1ccc2c(=O)n(C)c3cc(-c4ccnc(C(F)(F)F)c4)nn3c2c1
IC50: < 1000 nM
//
molecule: Cn1c(=O)c2cc(F)c(OC3COC3)cc2n2nc(-c3ccnc(C(F)(F)F)c3)cc12
IC50: < 1000 nM
//
molecule: Cn1c(=O)c2ccc(F)cc2n2nc(-c3ccnc(C4CCC4)c3)cc12
IC50: < 1000 nM
//
molecule: CNC(=O)c1ccc2c(=O)n(C)c3cc(-c4ccnc(C(F)(F)F)c4)nn3c2c1
IC50: < 1000 nM
//
molecule: CCNc1ccc2c(c1)c(=O)n(C)c1cc(-c3ccnc(C(F)(F)F)c3)nn21
IC50: < 1000 nM
//
molecule: Cn1c(=O)c2ccccc2n2nc(-c3ccnc(OC4CCC4)c3)cc12
IC50: < 1000 nM
//
molecule: Cn1c(=O)c2ccccc2n2nc(-c3ccnc(OCC(F)(F)C(F)(F)F)c3)cc12
IC50: < 1000 nM
//
molecule: COc1cc2c(=O)n(C)c3cc(-c4ccnc(C(F)(F)F)c4)nn3c2cc1F
IC50: < 1000 nM
//
molecule: Cn1c(=O)c2cc(F)c(F)cc2n2nc(-c3ccnc(C(F)(F)F)c3)cc12
IC50: < 1000 nM
//
molecule: CC(C)Oc1cc(-c2cc3n(C)c(=O)c4ccccc4n3n2)ccn1
IC50: < 1000 nM
//
molecule: [2H]C([2H])([2H])Nc1ccc2c(c1)c(=O)n(C)c1cc(-c3ccnc(C(F)(F)F)c3)nn21
IC50: < 1000 nM
//
molecule: Cl.Cn1c(=O)c2ccccc2n2nc(-c3ccnc(C4CCC4)c3)cc12
IC50: < 1000 nM
//
molecule: Cn1c(=O)c2ccc(N3CCC(O)CC3)cc2n2nc(-c3ccnc(C(F)(F)F)c3)cc12
IC50: < 1000 nM
//
molecule: Cn1c(=O)c2cc(O)ccc2n2nc(-c3ccnc(C(F)(F)F)c3)cc12
IC50: < 1000 nM
//
molecule: [2H]C([2H])([2H])n1c(=O)c2ccccc2n2nc(-c3ccnc(C(F)(F)F)c3)cc12
IC50: < 1000 nM
//
molecule: COc1cc2c(=O)n(C)c3cc(-c4ccnc(C(F)(F)F)c4)nn3c2cc1N1CCC(O)CC1
IC50: < 1000 nM
//
molecule: CN(C)C(=O)c1ccc2c(=O)n(C)c3cc(-c4ccnc(C(F)(F)F)c4)nn3c2c1
IC50: < 1000 nM
//
molecule: CC1CN(c2ccc3c(=O)n(C)c4cc(-c5ccnc(C(F)(F)F)c5)nn4c3c2)CC(C)O1 (stereo not shown)
IC50: < 1000 nM
//
molecule: CNc1ccc2c(=O)n(C)c3cc(-c4ccnc(C(F)(F)F)c4)nn3c2c1
IC50: < 1000 nM
//
molecule: Cn1c(=O)c2ccc(N3CCC(O)CC3)cc2n2nc(-c3ccnc(C4CC4)c3)cc12
IC50: < 1000 nM
//
molecule: Cn1c(=O)c2cc(F)c(NCCC#N)cc2n2nc(-c3ccnc(C(F)(F)F)c3)cc12
IC50: < 1000 nM
//
molecule: Cn1c(=O)c2ccc(N3CCC(O)C3)cc2n2nc(-c3ccnc(C(F)(F)F)c3)cc12 (stereo not shown)
IC50: < 1000 nM
//
molecule: Cn1c(=O)c2c(F)cccc2n2nc(-c3ccnc(C(F)(F)F)c3)cc12
IC50: < 1000 nM
//
molecule: C=C(C)c1cc(-c2cc3n(C)c(=O)c4ccccc4n3n2)ccn1
IC50: < 1000 nM
//
molecule: Cn1c(=O)c2ccccc2n2nc(-c3ccnc(OC(C(F)(F)F)C(F)(F)F)c3)cc12
IC50: < 1000 nM
//
molecule: Cn1c(=O)c2ccccc2n2nc(-c3ccnc(Cl)c3)cc12
IC50: < 1000 nM
//
molecule: COc1cc(-c2cc3n(C)c(=O)c4ccccc4n3n2)ccn1
IC50: < 1000 nM

These entries and their values trace back to patent US10221179B2.
